Assay: viability loss of HPDE-C7K cells – cell-based, fluorescence, HTS, primary screen (AID 431);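 note: 0% = DMSO solvent wells and 100% = doxorubicin-treated wells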
Conditions: HPDE-C7K KRASV12 cells, Alamar Blue viability, 48 h; at 10 µM; stronger effect = higher value
About 1,100 (1.7%) of roughly 63,000 compounds were called active. What follows is part of a selection rich in actives, with near analogues and random picks from the rest. Measured potencies and affinities stand elsewhere.
List of cytotoxicity values.
RECORDED ENDPOINT: cytotoxicity (%)

                                   molecule  recorded_endpoint  units_text  quantitative_readout
0  Cc1oc(-c2ccc(Cl)cc2)nc1CN1CCC(C(=O)N2CCN(c3ccccn3)CC2)CC1       cytotoxicity           %                     8
1  Cc1ccc2c(c1)c1c3n2CC(=C2C(=O)OC(C)(C)OC2=O)NC3CCC1 (stereo not given)       cytotoxicity           %                  33.1
2  Cc1cccn2c(=O)c3cc(C(=O)N4CCc5ccccc54)n(C)c3nc12       cytotoxicity           %                   1.3
3  Cc1cccn2c(=O)c3cc(C(=O)N4c5ccccc5CC4C)n(C)c3nc12 (stereo not given)       cytotoxicity           %                  77.7
4  COC(=O)C(C)NC(=O)C(C)NC(=O)OCc1ccccc1 (stereo not given)       cytotoxicity           %                     8
